Ref: the supplement of paper PMC10567573

B1: HESX1 (parent)
chain: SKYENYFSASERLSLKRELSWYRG

Variants of: B1
test: protein stability index of a GFP-peptide fusion (GPS, HEK-293T) (PSI 1-6); higher = more stable;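 further: lentivirally expressed fusions sorted by FACS into six bins by GFP to DsRed ratio, PSI derived from sequencing read proportions per bin multiplied by bin number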
testConditions: c terminus: a fixed tail appended
experimentalEndpoint: protein stability index
Numbers only.

Use the examples below as a reference point.
Short answer for "K16T" : protein stability index was 1.95

Field protein stability index (entry "G24V" ) reads 2.01

Data point: "R12Q" ; protein stability index = 1.95

Each of the following entries comes with a recorded value; kindly state protein stability index for each.
1. K2A
2. R12M
3. E11Q
4. L13P
5. F7D
6. R17S

Result:
1. 2.09
2. 1.06
3. 2.49
4. 2.35
5. 2.39
6. 1.56

State the recorded protein stability index for every item in the following list.
1. L19I
2. Y3D

Result:
1. 2.52
2. 2.29
